Test system: MDA-MB-468 breast
Assay: NCI-60 one-dose screen, 48 h
Conditions: 10 µM unless noted
Procedure: Growth inhibition of the MDA-MB-468 human Breast tumor cell line is measured as a screen for anti-cancer activity. Cells are grown in 96 well plates and exposed to the test compound for 48 hours. Compounds are tested at a single concentration, which is 10^-5 M for most compounds. The reported endpoint is percent growth (GI% or GIPRCNT), where numbers from 0 - 100% represent growth inhibition, and numbers from -100% - 0 represent cell death. […]
The panel holds about 83,000 compounds, 20% with a hit somewhere; the sample as a whole holds those more often. The source made the active and inactive calls. How the source made its calls: active means growth percent below 10; inactive means the rest.
Outcomes you can answer with include only these: y (active), n (inactive)

Example entries begin here.
compound	group
Clc1ccc2oc3c(OCCCn4ccnc4)c4ccccc4nc3c2c1	n
C/C(=C(/c1ccc(Cl)cc1)c1ccc(OCCN)cc1)c1ccc(C)cc1	n
O=c1[nH][n+](-c2ccc(Br)cc2)no1	n
CCCOC(=O)n1cccc1	n
O=C1NC(=O)c2c1c1c3ccccc3[nH]c1c1oc3ccc(F)cc3c21	y

Status in this test for Cc1cn(C(C=O)OC(C=O)CO)c(=O)[nH]c1=O (stereo not drawn) ? n

Status in this test for COc1ccc(C2=Nc3c(C)nn(-c4ccccc4)c3NC(c3ccc(Oc4ccnc5cc(Cl)ccc45)c(OC)c3)C2)cc1 (stereo not drawn) ? n

Status in this test for `COC(=O)[C@@H]1[C@H](O)[C@H](C)[C@H](O)[C@H](C)/C=C\C=C(C)C(=O)Nc2c(C)c(OC(C)=O)c3c(c2O)C(=O)C(C)=C2OCOC(=C23)C(C)=C[C@@](C)(O)[C@H](O)[C@@H](C)[C@H]1OC(C)=O` ? n

---

Tested on: MDA-MB-468 breast
Test: NCI-60 one-dose screen, 48 h
Settings: 10 µM unless noted
The panel holds about 83,000 compounds, 20% with a hit somewhere; the sample as a whole holds those more often. Active and inactive are the calls of the source. Rule for the calls: active = growth percent below 10; inactive = the rest.
Outcomes you can answer with include only these: label 1 = active, label 0 = inactive

compound	group
CN1C(=O)N(C)C2C1NN=c1s/c(=C\c3ccc(Cl)cc3Cl)c(=O)n12 (stereo unspecified)	label 0
Cc1cccc2sc(/N=C(\N)C(Cl)(Cl)Cl)nc12	label 0
CSC1=Nc2c(c(C)c(-c3ccccc3)n2CCCCl)C2=NC(=O)CN12	label 0

Status in this test for `O=S(=O)(O)c1ccc(Cl)c(Cl)c1` ? label 0

Status in this test for `CC(=O)OCCCCN1C=C/C(=C\C(=O)n2ccc3ccccc32)c2ccccc21` ? label 0

Status in this test for `COC(=O)N[C@@H](C)CNc1nccc(-c2cn(C(C)C)nc2-c2cc(Cl)cc(NS(C)(=O)=O)c2F)n1` ? label 0

Status in this test for `NC(=O)c1ccc[n+](CC(=O)N2CCN(c3cc4c(cc3F)c(=O)c(C(=O)O)cn4C3CC3)CC2)c1` ? label 0

---

Test system: MDA-MB-468 breast
Assay: NCI-60 one-dose screen, 48 h (100 = growth as untreated, 0 = no growth, -100 = all killed)
Settings: 10 µM unless noted
This is part of a sample that, as a whole, favours compounds with a hit. Of some 83,000 tested, about 20% had one in any assay.
Cut-off 90% on growth, inclusive. At or above means criterion met; below means criterion not met.

Example entries begin here.
compound	system-under-test	group
S=C1SCN(Cc2cccs2)CN1Cc1cccs1	MDA-MB-468 breast	criterion not met
Nc1ccc(-c2ccc(N)c(Br)c2)cc1Br	MDA-MB-468 breast	criterion not met
NC1(c2ccc(-c3nc4ccn5c(=O)[nH]nc5c4cc3-c3ccccc3)cc2)CCC1	MDA-MB-468 breast	criterion not met
CCNc1nc2ccc(Nc3ccnc4cc(Cl)ccc34)cc2[nH]1	MDA-MB-468 breast	criterion not met
CCOC(=O)c1c(C)[nH]c(C)c1C=O	MDA-MB-468 breast	criterion met

growth >= 90% for `COc1cc(OC)cc(-c2ccc(-c3ccc(C(=N)N)cn3)o2)c1` ? criterion not met

growth >= 90% for CC1OC(O[C@@H]2[C@H](O)C(CO)OC(O[C@H]3COC(O[C@H]4CC[C@]5(C)[C@H]6CC[C@]78OC[C@@]9(CC[C@](C)(C=O)C[C@H]97)C(=O)C[C@@]8(C)[C@]6(C)CC[C@H]5C4(C)C)[C@@H](O)[C@@H]3O)[C@H]2OC2OC[C@@H](O)[C@@H](O)[C@@H]2O)[C@@H](O)[C@@H](O)[C@H]1O (stereo partly specified) ? criterion met

growth >= 90% for `COc1ccc(NC2=C(Br)C(=O)C(C)=C(C)C2=O)cc1OC` ? criterion not met

growth >= 90% for `COc1cc(-c2csc(NC(=O)c3ccc(N4CCOCC4)c(C(F)(F)F)c3)n2)cc(OC)c1OC` ? criterion not met

growth >= 90% for `CC(C)N(C(=O)c1ccccc1)C(C)C` ? criterion not met

growth >= 90% for `C=CCN1C(=O)c2cccc3c(-c4ccc5c(c4)ncn5C4CCCCC4)ccc(c23)C1=O` ? criterion not met

growth >= 90% for `COc1ccc(NC(N)=NCCCOc2ccc(F)cc2)cc1` ? criterion not met

growth >= 90% for `Nc1nc(Cl)c2ncn(Cc3cc4c(cc3I)OCO4)c2n1` ? criterion not met

growth >= 90% for O=C1OCC2=C1C(c1cccc(C(F)(F)F)c1)c1cc3c(cc1N2CCO)CCC3 (stereo unspecified) ? criterion not met

growth >= 90% for `COc1cccc(Nc2nccc(Nc3ccc4[nH]ncc4c3)n2)c1` ? criterion not met

growth >= 90% for O=C1C=C(C(O)c2ccc(O)cc2)C(=O)c2ccccc21 (stereo unspecified) ? criterion met

growth >= 90% for `Cc1ccc(S(=O)(=O)/C(=C\c2ccc(Cl)cc2)C(=O)c2ccccc2)cc1` ? criterion met

growth >= 90% for `CCCc1cn(CC(=O)Nc2nc3ccccc3s2)nn1` ? criterion met

growth >= 90% for `O=C(Nc1cccnc1Nc1ccc(Cl)cc1)c1cn(Cc2ccc(F)cc2)nn1` ? criterion met

growth >= 90% for `COc1cc(-c2cc(-c3ccc(Nc4ccnc5cc(Cl)ccc45)cc3)nc(N3CCOCC3)n2)cc(OC)c1OC` ? criterion not met
